Below: a set of entries, each annotated with reported MIC.
System: Mycobacterium tuberculosis
assay-comment: Antimycobacterial activity against clinical isolates of multidrug resistant/extensively drug resistant Mycobacterium tuberculosis 7357/1998 after 14 days by micromethod
Type: functional
condition-notes: 7357/1998, 336 h
Kindly answer with a numeric value in µM, unit omitted.

Past entries and their recorded results:
>>> df
                                smiles_data  measurement_type  assay_result
0  Cc1ccc(Cn2nnc(-c3cc([N+](=O)[O-])cc([N+](=O)[O-])c3)n2)cc1               MIC          0.12
1  COc1ccc(Cn2nnc(-c3cc([N+](=O)[O-])cc([N+](=O)[O-])c3)n2)cc1               MIC          0.03
2  O=[N+]([O-])c1cc(-c2nnn(CSc3nnnn3-c3ccc(Cl)cc3)n2)cc([N+](=O)[O-])c1               MIC          0.03

# input Form field: reported MIC of O=[N+]([O-])c1cc(-c2nnn(CCCCSc3nnnn3-c3ccc(Br)cc3)n2)cc([N+](=O)[O-])c1
# output 0.25

---

Below: a set of entries, each annotated with reported MIC.
Tested on: Mycobacterium tuberculosis
assay-comment: Antimycobacterial activity against clinical isolates of multidrug resistant/extensively drug resistant Mycobacterium tuberculosis Praha 1 after 21 days by micromethod
Type: functional
condition-notes: Praha 1, 504 h
Kindly answer with a numeric value in µM, unit omitted.

Past entries and their recorded results:
                                smiles_data  measurement_type  uom  assay_result
0  O=[N+]([O-])c1cc(-c2nnn(Cc3ccccc3)n2)cc([N+](=O)[O-])c1               MIC   µM             1
1  COc1cccc(-n2nnnc2SCn2nnc(-c3cc([N+](=O)[O-])cc([N+](=O)[O-])c3)n2)c1               MIC   µM          0.03
2  O=[N+]([O-])c1cc(-c2nnn(CSc3nnnn3-c3ccc(Cl)cc3)n2)cc([N+](=O)[O-])c1               MIC   µM          0.06
3  O=[N+]([O-])c1cc(-c2nnn(CCCSc3nnnn3-c3ccc(Br)cc3)n2)cc([N+](=O)[O-])c1               MIC   µM          0.25

# input // map O=[N+]([O-])c1cc(-c2nnn(CSc3nnnn3-c3ccc(Br)cc3)n2)cc([N+](=O)[O-])c1 to recorded MIC (system: Mycobacterium tuberculosis)
# output 0.03

# input // map COc1ccc(Cn2nnc(-c3cc([N+](=O)[O-])cc([N+](=O)[O-])c3)n2)cc1 to recorded MIC (system: Mycobacterium tuberculosis)
# output 0.03

# input // map Cc1ccc(Cn2nnc(-c3cc([N+](=O)[O-])cc([N+](=O)[O-])c3)n2)cc1 to recorded MIC (system: Mycobacterium tuberculosis)
# output 0.25

# input // map O=[N+]([O-])c1cc(-c2nnn(Cc3cccc(F)c3)n2)cc([N+](=O)[O-])c1 to recorded MIC (system: Mycobacterium tuberculosis)
# output 1

# input // map O=[N+]([O-])c1cc(-c2nnn(Cc3cccc(Br)c3)n2)cc([N+](=O)[O-])c1 to recorded MIC (system: Mycobacterium tuberculosis)
# output 0.5

---

System: Mycobacterium tuberculosis
assay-comment: Antimycobacterial activity against clinical isolates of multidrug resistant/extensively drug resistant Mycobacterium tuberculosis 7357/1998 after 21 days by micromethod
Format: functional
condition-notes: 7357/1998, 504 h
Below: a set of entries, each annotated with reported MIC.
Kindly answer with a numeric value in µM, unit omitted.

Past entries and their recorded results:
In [3]: df
Out[3]:
                                smiles_data  uom  assay_result
0  O=[N+]([O-])c1cc(-c2nnn(CCCSc3nnnn3-c3ccc(Br)cc3)n2)cc([N+](=O)[O-])c1   µM          0.25
1  O=[N+]([O-])c1cc(-c2nnn(CSc3nnnn3-c3ccc(Cl)c(Cl)c3)n2)cc([N+](=O)[O-])c1   µM          0.03
2  Cc1ccc(Cn2nnc(-c3cc([N+](=O)[O-])cc([N+](=O)[O-])c3)n2)cc1   µM          0.12

# input // map COc1ccc(Cn2nnc(-c3cc([N+](=O)[O-])cc([N+](=O)[O-])c3)n2)cc1 to recorded MIC (system: Mycobacterium tuberculosis)
# output 0.03

---

Below: a set of entries, each annotated with reported MIC.
Tested on: Mycobacterium tuberculosis
assay-comment: Antimycobacterial activity against clinical isolates of multidrug resistant/extensively drug resistant Mycobacterium tuberculosis 7357/1998 after 14 days by micromethod
Format: functional
condition-notes: 7357/1998, 336 h
Kindly answer with a numeric value in µM, unit omitted.

Past entries and their recorded results:
>>> df
                                smiles_data  measurement_type  assay_result
0  O=[N+]([O-])c1cc(-c2nnn(CSc3nnnn3-c3ccc(Cl)c(Cl)c3)n2)cc([N+](=O)[O-])c1               MIC          0.03
1  O=[N+]([O-])c1cc(-c2nnn(Cc3ccc(F)cc3)n2)cc([N+](=O)[O-])c1               MIC           0.5
2  O=[N+]([O-])c1cc(-c2nnn(Cc3cccc(Br)c3)n2)cc([N+](=O)[O-])c1               MIC           0.5
3  O=[N+]([O-])c1cc(-c2nnn(CSc3nnnn3-c3ccc(Br)cc3)n2)cc([N+](=O)[O-])c1               MIC          0.03
4  O=[N+]([O-])c1cc(-c2nnn(CCCSc3nnnn3-c3ccc(Br)cc3)n2)cc([N+](=O)[O-])c1               MIC          0.25

# input Form field: reported MIC of O=[N+]([O-])c1cc(-c2nnn(Cc3cccc(F)c3)n2)cc([N+](=O)[O-])c1
# output 1

# input Form field: reported MIC of O=[N+]([O-])c1cc(-c2nnn(Cc3ccccc3)n2)cc([N+](=O)[O-])c1
# output 1

# input Form field: reported MIC of COc1cccc(-n2nnnc2SCn2nnc(-c3cc([N+](=O)[O-])cc([N+](=O)[O-])c3)n2)c1
# output 0.03

---

Below: a set of entries, each annotated with reported MIC.
Test system: Mycobacterium tuberculosis
assay-comment: Antimycobacterial activity against clinical isolates of multidrug resistant/extensively drug resistant Mycobacterium tuberculosis Praha 1 after 21 days by micromethod
Assay type: functional
condition-notes: Praha 1, 504 h
Kindly answer with a numeric value in µM, unit omitted.

>>> print(df.to_string())
                                smiles_data                study_target  uom  assay_result
0  O=[N+]([O-])c1cc(-c2nnn(CCCCSc3nnnn3-c3ccc(Br)cc3)n2)cc([N+](=O)[O-])c1  Mycobacterium tuberculosis   µM          0.25

# input // map O=[N+]([O-])c1cc(-c2nnn(CSc3nnnn3-c3ccc(Cl)c(Cl)c3)n2)cc([N+](=O)[O-])c1 to recorded MIC (system: Mycobacterium tuberculosis)
# output 0.03

# input // map O=[N+]([O-])c1cc(-c2nnn(Cc3ccc(F)cc3)n2)cc([N+](=O)[O-])c1 to recorded MIC (system: Mycobacterium tuberculosis)
# output 1

---

Tested on: Mycobacterium tuberculosis
assay-comment: Antimycobacterial activity against clinical isolates of multidrug resistant/extensively drug resistant Mycobacterium tuberculosis Praha 4 after 21 days by micromethod
Assay type: functional
condition-notes: Praha 4, 504 h
measurement-type: MIC

Past entries and their recorded results:
>>> print(df.to_string())
                                smiles_data                study_target  assay_result
0  O=[N+]([O-])c1cc(-c2nnn(CCCSc3nnnn3-c3ccc(Br)cc3)n2)cc([N+](=O)[O-])c1  Mycobacterium tuberculosis       0.25 µM
1  O=[N+]([O-])c1cc(-c2nnn(CCCCSc3nnnn3-c3ccc(Br)cc3)n2)cc([N+](=O)[O-])c1  Mycobacterium tuberculosis       0.25 µM

Let us examine a further case.
# input Form field: reported MIC of COc1ccc(Cn2nnc(-c3cc([N+](=O)[O-])cc([N+](=O)[O-])c3)n2)cc1
# output 0.03 µM
